- tested_target: glucocerebrosidase (Gcase) (Homo sapiens)
- Construct: micellar solution containing 10 nM GCase and 100 nM saposin C
- Sequence (P04062 40-536): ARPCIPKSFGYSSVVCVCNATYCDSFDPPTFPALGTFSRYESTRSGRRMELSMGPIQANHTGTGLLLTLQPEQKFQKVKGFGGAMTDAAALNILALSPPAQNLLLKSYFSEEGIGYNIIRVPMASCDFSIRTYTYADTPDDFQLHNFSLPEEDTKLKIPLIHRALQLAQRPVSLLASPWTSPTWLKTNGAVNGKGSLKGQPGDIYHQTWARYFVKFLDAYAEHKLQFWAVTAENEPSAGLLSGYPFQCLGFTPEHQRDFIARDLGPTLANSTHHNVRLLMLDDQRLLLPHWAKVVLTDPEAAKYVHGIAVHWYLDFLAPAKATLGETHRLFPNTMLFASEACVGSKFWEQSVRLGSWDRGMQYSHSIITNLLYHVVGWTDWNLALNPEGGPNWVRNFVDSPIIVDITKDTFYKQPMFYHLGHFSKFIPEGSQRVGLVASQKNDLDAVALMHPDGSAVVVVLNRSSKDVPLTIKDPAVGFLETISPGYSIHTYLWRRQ
- assay_details: Glucocerebrosidase (Gcase) activation assay, 4-methylumbelliferyl-beta-D-glucopyranoside substrate, fluorescence readout
- Format: biochemical
- condition_parameters: test compound at 1.0 μM; read-out: Percent Gcase Activation, 1 μM Test Compound
Collected activation at 1 µM values appear next to each entry.

Use these answered entries as a reference point.
| molecule | reported_measurement |
| --- | --- |
| Cc1cc(C)n2ccc(C(=O)Nc3ccc4c(c3)C(Oc3ccccn3)CC4)c2n1 (centres unmarked) [III-121] | 30 to 60% |
| Cc1cc(C)n2ccc(C(=O)NC3CCc4ccccc43)c2n1 (centres unmarked) [III-216] | > 60% |
| Cc1cc(C2CC2)n2ccc(C(=O)N[C@H]3CC[C@H](OCCCCC(F)(F)F)CC3)c2n1 [III-47] | > 60% |
| Cc1cc(C)n2ccc(C(=O)NC3CCC(F)(F)CC3)c2n1 [III-92] | 30 to 60% |

Now let's try a different one.
Problem: Give the measured activation at 1 µM of Cc1cc(C)n2ccc(C(=O)Nc3ccc(-c4cnn(C)c4)nc3)c2n1 [III-21] .
Result: < 30%

###

- assay_details: physchem
- condition_parameters: water, Compound Solubility in Water
measurement_kind: solubility (µg/mL)
State the answer as a number, implicitly in µg/mL.

| molecule | unit_text | reported_measurement |
| --- | --- | --- |
| CCCCCC(=O)N1C2CCC1CC(NC(=O)c1ccn3c(C)cc(C)nc13)C2 (centres unmarked) | µg/mL | 6.5 |

Problem: Give the measured solubility of Cc1cc(C)n2ccc(C(=O)NC3CC4CCC(C3)N4CC(F)(F)F)c2n1 (centres unmarked) .
Result: 18.9

###

- assay_details: Compound solubility in water
- condition_parameters: water, Compound Solubility in Water, in water
measurement_kind: solubility (µg/mL)

Use these answered entries as a reference point.
| compound | unit_text | solubility |
| --- | --- | --- |
| CCCc1cc(COC)n2ccc(C(=O)NC3(C)CCOc4cc(F)c(F)cc43)c2n1 (stereo not shown) | µg/mL | 0.4 |
| Cc1cc(C)n2ccc(C(=O)Nc3ccc(C4=NCCO4)cc3Cl)c2n1 | µg/mL | 0.9 |
| Cc1cc(C)n2ccc(C(=O)NC3CCCc4ccc(S(C)(=O)=O)cc43)c2n1 (stereo not shown) | µg/mL | 13.8 |
| CCC(F)(F)CN1CCC(NC(=O)c2ccn3c(C)cc(C)nc23)C1 (stereo not shown) | µg/mL | 21.3 |

1. CO[C@H]1CC[C@H](C(C)(C)NC(=O)c2ccn3c(C)cc(C)nc23)CC1
2. Cc1ccnc2c(C(=O)Nc3ccc(-c4ncco4)cc3)ccn12
Problem: Which gives the smaller solubility number: 1 or 2 ? Returns: label corresponding to the selected item.
Result: 2
(2: 4 µg/mL, 1: 9.9 µg/mL)

P. Cc1ccnc2c(C(=O)N[C@H](C)c3ccc(F)cc3)ccn12
Q. Cc1cc(C)n2ccc(C(=O)NC3CCC4OCOC4C3)c2n1 (stereo not shown)
Problem: API: POST /compare with P and Q ; response names the item with higher solubility. Returns: label corresponding to the selected item.
Result: Q
(Q: 28.5 µg/mL, P: 12.7 µg/mL)

1. COc1ccccc1C(C)(C)NC(=O)c1ccn2c(C)cc(C)nc12
2. CCCCO[C@H]1CC[C@H](NC(=O)c2ccn3c(COC)cc(CCC)nc23)CC1
3. Cc1cc(C)n2ccc(C(=O)NC3CCCc4ccncc43)c2n1 (stereo not shown)
Problem: With regard to solubility, arrange the entries in ascending order, please. # output: labels, in the requested order
Result: 2, 1, 3
